Would you kindly list IC50 for each of these compounds?
Biological target: phosphorylated ERBB2 (pERBB2) (Homo sapiens)
Construct: endogenous in cells; host or cells: BT-474
Sequence (P04626 23-1255): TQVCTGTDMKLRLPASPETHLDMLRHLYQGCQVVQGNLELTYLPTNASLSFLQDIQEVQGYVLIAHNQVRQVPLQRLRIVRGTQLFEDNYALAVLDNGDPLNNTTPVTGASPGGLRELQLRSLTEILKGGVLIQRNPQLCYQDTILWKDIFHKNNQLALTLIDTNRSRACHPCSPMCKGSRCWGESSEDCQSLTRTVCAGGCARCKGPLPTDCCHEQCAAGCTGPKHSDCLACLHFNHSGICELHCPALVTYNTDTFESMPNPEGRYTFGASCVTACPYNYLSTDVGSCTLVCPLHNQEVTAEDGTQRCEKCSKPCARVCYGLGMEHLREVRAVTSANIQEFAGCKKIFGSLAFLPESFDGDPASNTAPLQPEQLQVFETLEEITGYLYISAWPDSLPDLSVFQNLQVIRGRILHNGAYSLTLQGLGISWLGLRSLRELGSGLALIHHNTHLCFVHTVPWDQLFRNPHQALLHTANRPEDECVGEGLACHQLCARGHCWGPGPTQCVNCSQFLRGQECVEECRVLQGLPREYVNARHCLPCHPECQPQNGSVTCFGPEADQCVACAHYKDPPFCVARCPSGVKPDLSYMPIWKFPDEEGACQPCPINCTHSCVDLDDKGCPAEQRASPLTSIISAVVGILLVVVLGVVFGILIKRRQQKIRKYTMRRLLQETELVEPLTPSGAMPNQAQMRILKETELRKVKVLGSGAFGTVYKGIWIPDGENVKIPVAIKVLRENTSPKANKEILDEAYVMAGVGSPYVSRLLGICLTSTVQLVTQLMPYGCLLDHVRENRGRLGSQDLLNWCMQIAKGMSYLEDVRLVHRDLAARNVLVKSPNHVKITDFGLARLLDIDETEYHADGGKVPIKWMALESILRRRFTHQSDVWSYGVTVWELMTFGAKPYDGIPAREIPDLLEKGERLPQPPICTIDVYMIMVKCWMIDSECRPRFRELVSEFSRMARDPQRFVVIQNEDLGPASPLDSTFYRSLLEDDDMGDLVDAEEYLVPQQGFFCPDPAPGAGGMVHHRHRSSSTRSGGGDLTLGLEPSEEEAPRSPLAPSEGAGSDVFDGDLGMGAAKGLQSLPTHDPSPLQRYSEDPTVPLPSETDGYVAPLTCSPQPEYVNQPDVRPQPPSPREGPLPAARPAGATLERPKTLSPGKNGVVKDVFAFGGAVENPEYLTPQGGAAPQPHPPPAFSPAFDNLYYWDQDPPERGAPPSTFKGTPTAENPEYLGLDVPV
Experiment: Detection of phosphorylated ERBB2 (pERBB2) by ELISA in BT-474 cells
Type: cell-based
Conditions: four hours incubation
Supply the numeric figure in nM, leaving out any unit text.

Item C=C1C(=O)N(c2ccc3ncnc(Nc4ccc(Oc5ccn6ncnc6c5)c(C)c4)c3c2)CC12CC2 with phosphorylated ERBB2 (pERBB2) (Homo sapiens) - IC50?
75.9

IC50 of C=C1CCN(c2ccc3ncnc(Nc4ccc(Oc5ccn6ncnc6c5)c(C)c4)c3c2F)C1=O on phosphorylated ERBB2 (pERBB2) (Homo sapiens)?
109

Request - read-out IC50 | tested on phosphorylated ERBB2 (pERBB2) (Homo sapiens) | compound C=C1C(=O)N(c2ccc3ncnc(Nc4ccc(Cc5ccn6ncnc6c5)c(C)c4)c3c2)C[C@H]1C
40.9

API: value(readout=IC50, system=phosphorylated ERBB2 (pERBB2) (Homo sapiens)) for record C=C1C(=O)N(c2ccc3ncnc(Nc4ccc(Cc5ccn6ncnc6c5)c(C)c4)c3c2)C2CC12 (single isomer, unassigned) [Example S79, Enantiomer #1]
36.6

Value wanted: IC50 (phosphorylated ERBB2 (pERBB2) (Homo sapiens)) of entry C=C1CCN(c2ccc3ncnc(Nc4ccc(Oc5ccc6nccnc6c5)c(C)c4)c3c2)C1=O
65.1

Report IC50 for Cc1cc(Nc2ncnc3ccc(N4CC/C(=C\[C@@H](C)N(C)C)C4=O)nc23)ccc1Oc1ccn2ncnc2c1 tested on phosphorylated ERBB2 (pERBB2) (Homo sapiens).
31.1

Field: IC50 (phosphorylated ERBB2 (pERBB2) (Homo sapiens)). Entry: Cc1cc(Nc2ncnc3cnc(N4CC(C)C(=CCN(C)C)C4=O)cc23)ccc1Oc1ccc2c(c1)ncn2C (single isomer, unassigned) [Example S97, Enantiomer #2]
21

Any idea what IC50 came out for [2H]C([2H])([2H])N(C/C=C1\CCN(c2ccc3ncnc(Nc4ccc(Oc5ccc6c(c5)ncn6C)c(C)c4)c3n2)C1=O)C([2H])([2H])[2H] on phosphorylated ERBB2 (pERBB2) (Homo sapiens)?
43.7

Find the measured IC50: item CC1CN(c2cc3c(Nc4ccc(Oc5ccc6c(c5)nnn6C)cc4)ncnc3cn2)C(=O)/C1=C/CN(C)C (single isomer, unassigned) [Compound 136] , target or system phosphorylated ERBB2 (pERBB2) (Homo sapiens).
72.6

For phosphorylated ERBB2 (pERBB2) (Homo sapiens), provide IC50 of Cc1cc(Nc2ncnc3ccc(N4CC/C(=C\CCN(C)C)C4=O)cc23)ccc1Oc1ccc2c(c1)ncn2C please.
26.2

Give phosphorylated ERBB2 (pERBB2) (Homo sapiens) IC50 for C=C1CCN(c2ccc3ncnc(Nc4ccc(Oc5ccn6ncnc6c5)c(C)c4)c3n2)C1=O
23.2

Record lookup: for phosphorylated ERBB2 (pERBB2) (Homo sapiens), what IC50 belongs to C=C1CCN(c2ccc3ncnc(Nc4ccc(Oc5ccn6ccnc6c5)c(C)c4)c3c2)C1=O ?
5.17

Item: CC1CN(c2cc3c(Nc4ccc(Oc5ccc6c(c5)nnn6C)c(F)c4)ncnc3cn2)C(=O)/C1=C/CN(C)C (single isomer, unassigned) [Example S117, Enantiomer #1] Test system: phosphorylated ERBB2 (pERBB2) (Homo sapiens) Read-out: IC50 Value: ?
40

Item Cc1cc(Nc2ncnc3ccc(N4CC/C(=C\CCN(C)C)C4=O)nc23)ccc1Oc1ccc2c(c1)ncn2C with phosphorylated ERBB2 (pERBB2) (Homo sapiens) - IC50?
35.6

Kindly state the measured IC50 obtained for Cc1cc(Nc2ncnc3ccc(N4CC(C)C(=CCN(C)C)C4=O)nc23)ccc1Oc1ccn2ncnc2c1 (single isomer, unassigned) [Example S98, Enantiomer #2] with phosphorylated ERBB2 (pERBB2) (Homo sapiens).
26.4

Param readout= IC50; system= phosphorylated ERBB2 (pERBB2) (Homo sapiens); entry= CN(C)C/C=C1\CCN(c2cc3c(Nc4cc(Cl)c(Oc5ccn6ncnc6c5)cc4F)ncnc3cn2)C1=O ; returns value.
10.9

Provide the documented IC50 with phosphorylated ERBB2 (pERBB2) (Homo sapiens) as the system for C=C1C(=O)N(c2ccc3ncnc(Nc4ccc(Cc5ccn6ncnc6c5)c(C)c4)c3c2)C2CC12 (single isomer, unassigned) [Example S79, Enantiomer #2]
15.3

Look up IC50 with phosphorylated ERBB2 (pERBB2) (Homo sapiens) for this compound: C=C1C(=O)N(c2ccc3ncnc(Nc4ccc(Oc5ccn6ncnc6c5)c(C)c4)c3c2)C2CC12 (single isomer, unassigned) [Example S21, Enantiomer # 1]
20.8

Field: IC50 (phosphorylated ERBB2 (pERBB2) (Homo sapiens)). Entry: C=C1CCN(c2ccc3ncnc(Nc4ccc(Cc5ccn6ncnc6c5)c(C)c4)c3c2)C1=O
9.15

What reported IC50 corresponds to Cc1cc(Nc2ncnc3ccc(N4CC/C(=C\CN(C)C)C4=O)nc23)ccc1Oc1ccn2ncnc2c1 on phosphorylated ERBB2 (pERBB2) (Homo sapiens)?
28.9

Give phosphorylated ERBB2 (pERBB2) (Homo sapiens) IC50 for Cc1c(Oc2ccc3c(c2)ncn3C)ccc(Nc2ncnc3cnc(N4CC/C(=C\CN(C)C)C4=O)cc23)c1F
18.4

What measured IC50 is associated with Cc1cc(Nc2ncnc3ccc(N4CC/C(=C\CN(C)C)C4=O)nc23)ccc1Oc1ccn2ccnc2c1 on phosphorylated ERBB2 (pERBB2) (Homo sapiens)?
25.7

What measured IC50 is associated with Cc1cc(Nc2ncnc3ccc(N4C(=O)C(=CCN(C)C)C5CC54)nc23)ccc1Oc1ccn2ncnc2c1 (single isomer, unassigned) [Example S108, Enantiomer #2] on phosphorylated ERBB2 (pERBB2) (Homo sapiens)?
12.7
